Reported IC50 values for the following compounds.
Biological target: human CCR2 (Homo sapiens)
Sequence (P41597 1-360 isoform P41597-2): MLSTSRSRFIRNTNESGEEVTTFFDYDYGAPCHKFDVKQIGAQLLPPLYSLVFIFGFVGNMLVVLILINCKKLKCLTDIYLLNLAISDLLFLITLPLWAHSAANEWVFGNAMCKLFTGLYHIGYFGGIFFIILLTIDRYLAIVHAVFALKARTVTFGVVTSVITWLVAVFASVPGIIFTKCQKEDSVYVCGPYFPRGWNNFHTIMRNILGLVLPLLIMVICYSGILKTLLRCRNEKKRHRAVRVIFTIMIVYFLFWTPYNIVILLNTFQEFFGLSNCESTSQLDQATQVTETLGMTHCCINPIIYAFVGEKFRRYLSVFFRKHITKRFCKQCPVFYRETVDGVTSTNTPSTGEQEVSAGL
Assay: Functional Ca2+ release test (B-1)
Details: Chem-1 cell line transfected with human CCR2; 50% inhibition of the MCP-1 effect, MCP-1 at EC50 (about 5 nM); in some cases means of several determinations

Compound: Cn1ncc(-c2nc(C(F)(F)F)c(Oc3ccc(Cl)c(Cl)c3)c(=O)[nH]2)c1N [Example 68]
IC50 [nM]: 27
//
Compound: O=c1[nH]c(-c2ncccc2F)nc(C(F)(F)F)c1Oc1ccc(Cl)c(Cl)c1 [Example 15]
IC50 [nM]: 2
//
Compound: O=c1[nH]c(-c2ccccn2)nc(C(F)(F)F)c1Oc1ccc(Cl)c(Cl)c1 [Example 3]
IC50 [nM]: 1.2
//
Compound: COc1cccc(Nc2nc(C(F)(F)F)c(Oc3ccc(Cl)c(C(F)(F)F)c3)c(=O)[nH]2)n1 [Example 100]
IC50 [nM]: 65
//
Compound: Cc1ccc(Oc2c(C(F)(F)F)nc(-c3cc[nH]n3)[nH]c2=O)cc1Cl [Example 224]
IC50 [nM]: 0.3
//
Compound: O=c1[nH]c(-c2ncccc2Cl)nc(C(F)(F)F)c1Cc1ccc(Cl)c(Cl)c1 [Example 16]
IC50 [nM]: 2.1
//
Compound: CNc1ccnc(-c2nc(C(F)(F)F)c(Oc3ccc(Cl)c(Cl)c3)c(=O)[nH]2)c1 [Example 168]
IC50 [nM]: 25
//
Compound: Cc1cccc(-c2nc(C(F)(F)F)c(Cc3ccc(Cl)c(Cl)c3)c(=O)[nH]2)n1 [Example 25]
IC50 [nM]: 33
//
Compound: CSc1cccnc1-c1nc(C(F)(F)F)c(Oc2ccc(Cl)c(Cl)c2)c(=O)[nH]1 [Example 115]
IC50 [nM]: 0.2
//
Compound: Cc1cc(-c2nc(C(F)(F)F)c(Oc3ccc(Cl)c(C(F)(F)F)c3)c(=O)[nH]2)nn1C [Example 170]
IC50 [nM]: 0.7
//
Compound: O=c1[nH]c(Cc2cccnc2)nc(C(F)(F)F)c1Cc1ccc(Cl)c(Cl)c1 [Example 98]
IC50 [nM]: 120
//
Compound: Cc1ccc(-c2nc(C(F)(F)F)c(Oc3ccc(Cl)c(Cl)c3)c(=O)[nH]2)nc1 [Example 7]
IC50 [nM]: 2.2
//
Compound: O=c1[nH]c(CN2CCOCC2)nc(C(F)(F)F)c1Cc1ccc(Cl)c(Cl)c1 [Example 261]
IC50 [nM]: 360
//
Compound: COc1ccnc(-c2nc(C(F)(F)F)c(Oc3ccc(Cl)c(Cl)c3)c(=O)[nH]2)c1 [Example 147]
IC50 [nM]: 121
//
Compound: O=c1[nH]c(-c2ncccc2C(F)(F)F)nc(C(F)(F)F)c1Oc1ccc(Cl)c(C(F)(F)F)c1 [Example 186]
IC50 [nM]: 4.8
//
Compound: CCOC(=O)C1CCN(c2nc(C(F)(F)F)c(Cc3ccc(Cl)c(Cl)c3)c(=O)[nH]2)CC1 [Example 176]
IC50 [nM]: 45

Cited source: patent US20160237059A1
